Where do the numbers come from? From ChEMBL document CHEMBL3588834.

Assay: Binding affinity to Pseudomonas aeruginosa LecB
quantity name: Kd (nM)

| compound | data value |
| --- | --- |
| CO[C@H]1O[C@H](CNS(=O)(=O)c2c(C)cc(C)cc2C)[C@@H](O)[C@H](O)[C@@H]1O | 3300 |
| COC(=O)c1cn([C@@H]2O[C@H](CO)[C@@H](O[C@@H]3O[C@H](C)[C@@H](O)[C@@H](O)[C@@H]3O)[C@H](O)[C@H]2NC(C)=O)nn1 | 290 |
| CC(=O)N[C@H]1C(O)O[C@H](CO)[C@@H](O[C@@H]2O[C@@H](C)[C@@H](O)[C@@H](O)[C@@H]2O)[C@@H]1O[C@@H]1O[C@H](CO)[C@H](O)[C@H](O)[C@H]1O (stereo partly drawn) | 210 |

---

Assay: Binding affinity to Pseudomonas aeruginosa LecA
Hi! Just check whether Kd is below 4 µM. Below gives YES, equal or above gives NO.

| compound | cat |
| --- | --- |
| CC(C)C[C@H](NC(=O)[C@@H]1CCCN1C(=O)[C@H](CCCCN)NC(=O)c1ccc(O[C@@H]2O[C@H](CO)[C@H](O)[C@H](O)[C@H]2O)cc1)C(N)=O | NO |
| [N-]=[N+]=NCC(=O)Nc1ccc(O[C@@H]2O[C@H](CO)[C@H](O)[C@H](O)[C@H]2O)cc1 | NO |
| O=C[C@H](O)[C@@H](O)[C@@H](O)[C@H](O)CO [GALACTOSE] | NO |
| OC[C@H]1O[C@@H](Oc2ccc3ccccc3c2)[C@H](O)[C@@H](O)[C@H]1O | NO |
| OC[C@H]1O[C@@H](OCc2cn([C@H]3[C@H](O)[C@@H](O)[C@H](c4cn([C@H]5[C@H](O)[C@@H](O)[C@H](n6cc([C@@H]7O[C@H](CO)[C@@H](n8cc(CO[C@@H]9O[C@H](CO)[C@H](O)[C@H](O)[C@H]9O)nn8)[C@H](O)[C@H]7O)nn6)O[C@@H]5CO)nn4)O[C@@H]3CO)nn2)[C@H](O)[C@@H](O)[C@H]1O | YES |
| CC(C)(C)c1cc2c(Oc3cn(CC(=O)NCCOCCO[C@@H]4O[C@H](CO)[C@H](O)[C@H](O)[C@H]4O)nn3)c(c1)Cc1cc(C(C)(C)C)cc(c1Oc1cn(CC(=O)NCCOCCO[C@@H]3O[C@H](CO)[C@H](O)[C@H](O)[C@H]3O)nn1)Cc1cc(C(C)(C)C)cc(c1Oc1cn(CC(=O)NCCOCCO[C@@H]3O[C@H](CO)[C@H](O)[C@H](O)[C@H]3O)nn1)Cc1cc(C(C)(C)C)cc(c1Oc1cn(CC(=O)NCCOCCO[C@@H]3O[C@H](CO)[C@H](O)[C@H](O)[C@H]3O)nn1)C2 | YES |
| OC[C@H]1O[C@@H](Sc2ccc3ccccc3c2)[C@H](O)[C@@H](O)[C@H]1O | NO |

---

Tested on: Streptococcus suis
Test: […] of Streptococcus suis by hemagglutination inhibition assay
Assay type: functional, organism-based
In this section we review reported IC50 values for a set of compounds.
quantity name: IC50 (nM)

| smiles notation | quantity name | units symbol | data value |
| --- | --- | --- | --- |
| COc1ccc(O[C@@H]2O[C@H](CO)[C@H](O[C@H]3O[C@H](CO)[C@H](O)[C@H](NC(=O)Nc4ccccc4)[C@H]3O)[C@H](O)[C@H]2O)cc1 | IC50 | nM | 30 |
| COc1ccc(O[C@@H]2O[C@H](CO)[C@H](O[C@H]3O[C@H](CO)[C@H](O)[C@H](O)[C@H]3O)[C@H](O)[C@H]2O)cc1 | IC50 | nM | 310 |
| O=C(CCSCC(CSCCC(=O)NCCO[C@@H]1O[C@H](CO)[C@H](O[C@H]2O[C@H](CO)[C@H](O)[C@H](O)[C@H]2O)[C@H](O)[C@H]1O)(CSCCC(=O)NCCO[C@@H]1O[C@H](CO)[C@H](O[C@H]2O[C@H](CO)[C@H](O)[C@H](O)[C@H]2O)[C@H](O)[C@H]1O)CSCCC(=O)NCCO[C@@H]1O[C@H](CO)[C@H](O[C@H]2O[C@H](CO)[C@H](O)[C@H](O)[C@H]2O)[C@H](O)[C@H]1O)NCCO[C@@H]1O[C@H](CO)[C@H](O[C@H]2O[C@H](CO)[C@H](O)[C@H](O)[C@H]2O)[C@H](O)[C@H]1O | IC50 | nM | 2 |
| COCO[C@H]1[C@@H](O[C@@H]2[C@H](O)[C@@H](O)[C@H](Oc3ccc(OC)cc3)O[C@@H]2CO)O[C@H](CO)[C@H](O)[C@@H]1O | IC50 | nM | 50 |
